# Test system: Rattus norvegicus
# MEASUREMENT PROTOCOL: Antiinflammatory activity in Wistar rat assessed as inhibition of carrageenan-induced paw edema at 10 mg/kg, po after 4 hrs relative to celecoxib
# Type: functional
# MEASUREMENT PARAMETERS: Rattus norvegicus, Wistar, po, 4 h
REPORTED ENDPOINT: inhibition in vivo at 10 mg/kg (%)
Give your result in % as a bare value.

Input: // fetch inhibition in vivo at 10 mg/kg given entry Cc1ccc(-c2cc(C(F)(F)F)nn2-c2ccc(S(=O)(=O)NOC(C)C(=O)O)cc2)cc1 (racemic; 21)
Output: 38.4

Input: Entry `Cc1ccc(-c2cc(C(F)(F)F)nn2-c2ccc(S(=O)(=O)NO[C@@H](C)C(=O)O)cc2)cc1` needs its inhibition in vivo at 10 mg/kg filled in; supply it.
Output: 0.9

Input: Hello, please tell me recorded inhibition in vivo at 10 mg/kg for this one: `Cc1ccc(-c2cc(C(F)(F)F)nn2-c2ccc(S(=O)(=O)NOCC(=O)O)cc2)cc1`
Output: 26

Input: Supply inhibition in vivo at 10 mg/kg value. Item: CCOC(=O)C(C)ONS(=O)(=O)c1ccc(-n2nc(C(F)(F)F)cc2-c2ccc(C)cc2)cc1 (racemic)
Output: 23.5

Input: Please supply the value of reported inhibition in vivo at 10 mg/kg for the item `CCOC(=O)CONS(=O)(=O)c1ccc(-n2nc(C(F)(F)F)cc2-c2ccc(C)cc2)cc1`
Output: 13.3

***
Input: Return reported inhibition in vivo at 10 mg/kg. Input molecule: `Cc1ccc(-c2cc(C(F)(F)F)nn2-c2ccc(S(N)(=O)=O)cc2)cc1`
Output: 24.2

Input: Check the records and state inhibition in vivo at 10 mg/kg for `Cc1ccc(-c2cc(C(F)(F)F)nn2-c2ccc(S(=O)(=O)NO[C@H](C)C(=O)O)cc2)cc1`
Output: 18.4

Input: Indicate the recorded inhibition in vivo at 10 mg/kg value for this molecule: `Cc1ccc(-c2cc(C(F)(F)F)nn2-c2ccc(S(=O)(=O)NOCCC(=O)[O-])cc2)cc1.[Na+]`
Output: 32

###

# Test system: Rattus norvegicus
# MEASUREMENT PROTOCOL: Antiinflammatory activity in Wistar rat assessed as inhibition of carrageenan-induced paw edema at 10 mg/kg, po after 6 hrs relative to celecoxib
# Format: functional
# MEASUREMENT PARAMETERS: Rattus norvegicus, Wistar, po, 6 h
Entries and their measured inhibition in vivo at 10 mg/kg follow.
State just the number; it will be interpreted in %.

Worked cases, answers included:
Input: Note down inhibition in vivo at 10 mg/kg recorded for `Cc1ccc(-c2cc(C(F)(F)F)nn2-c2ccc(S(N)(=O)=O)cc2)cc1`
Output: 18.6

Input: Provide inhibition in vivo at 10 mg/kg value for the following molecule: Cc1ccc(-c2cc(C(F)(F)F)nn2-c2ccc(S(=O)(=O)NOC(C)C(=O)O)cc2)cc1 (racemic; 21)
Output: 21.8

Input: Fill in reported inhibition in vivo at 10 mg/kg for this entry: `CCOC(=O)CONS(=O)(=O)c1ccc(-n2nc(C(F)(F)F)cc2-c2ccc(C)cc2)cc1`
Output: 23.1

Input: Tell me inhibition in vivo at 10 mg/kg reported for `Cc1ccc(-c2cc(C(F)(F)F)nn2-c2ccc(S(=O)(=O)NO[C@H](C)C(=O)O)cc2)cc1`
Output: 15.3

Input: Read the entry CCOC(=O)C(C)ONS(=O)(=O)c1ccc(-n2nc(C(F)(F)F)cc2-c2ccc(C)cc2)cc1 (racemic) and write its reported inhibition in vivo at 10 mg/kg.
Output: 15.7

Input: Tell me measured inhibition in vivo at 10 mg/kg for `Cc1ccc(-c2cc(C(F)(F)F)nn2-c2ccc(S(=O)(=O)NO[C@@H](C)C(=O)O)cc2)cc1` please.
Output: -9.3

Next:
Input: Specify measured inhibition in vivo at 10 mg/kg for `Cc1ccc(-c2cc(C(F)(F)F)nn2-c2ccc(S(=O)(=O)NOCC(=O)O)cc2)cc1` .
Output: 33.2
